Tested on: MGC-803
Experiment: Cell cytotoxicity assay (CCK8)
Format: cell-based, human
Details: CCK8, 48 h treatment
Experimental: The cell growth effect of BMPQ-1 against different cell lines were tested via measuring the quantity of living cells using the Cell Counting Kit-8 (CCK8) (DOJINDO, Japan) according to the instruction. Cells were seeded in a 96-well plate (5 × 10^3 cells/well) and grown for 24 h for attachment. Then the cells were treated with various concentrations of BMPQ-1 and incubated at 37°C with 5% CO2 for 48 h. […] The optical density (OD) was detected at 450 nm by an automated microplate reader (Bio-Rad). […]
Measured Attribute: IC50
The reply must contain the numeric value and, after it, the unit.

### Prompt Specify IC50 for CN(C)c1ccc(Nc2c3ccc(NC(=O)CCN4CCCC4)cc3nc3cc(NC(=O)CCN4CCCC4)ccc23)cc1 [BRACO-19, reference compound] , system MGC-803.
### Response 7.07 µM
